assay: qHTS assay to identify small molecule agonists of the estrogen receptor alpha (ER-alpha) signaling pathway in the presence of an antagonist - cell viability counter screen (AID 1259386); settings: VM7Luc4E2 viability, CellTiter-Fluor fluorescence, 22 h; series mostly up to 92.4 µM;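 note: cells exposed to compounds for 22 h at 37 °C before the viability read; nearly all actives have a fitted effect of over 30% in size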
Inconclusive results are not listed. Calls of active or inactive are those of the source. Calls come from the whole dose curve; as a rule, active = well fitted cell-killing curve with a large enough effect in the repeat runs; inconclusive = weak or mixed curves, or effect the other way; inactive = no such curve, though single readings can be large or run the other way.
readout: outcome

compound	val
CCCCOCCOC(=O)c1cccnc1	inactive
Nc1ccc(S(=O)(=O)NCc2ccccc2)cc1	inactive
CCC(CO)(CO)CO	inactive
Cc1ccc(N(CC2=NCCN2)c2cccc(O)c2)cc1	inactive
O=C(O)CCC(=O)OC[C@@H](NC(=O)C(Cl)Cl)[C@H](O)c1ccc([N+](=O)[O-])cc1	inactive
O=C(O)CCS	inactive
CCC1CCC(CCC(=O)O)C1 (stereo unspecified)	inactive
O=CNNC=O	inactive
O=C(Nc1ccc(C(=O)O)c(O)c1)c1ccccc1	inactive
CCCCCCCCCCCCCC(=O)OCC(O)CO (stereo unspecified)	inactive
Cc1ccc2nc(N)[nH]c(=O)c2c1Sc1ccncc1	inactive

---

assay: qHTS assay for identifying genotoxic compounds that show differential cytotoxicity against isogenic chicken DT40 cell lines with known DNA damage response pathways - Rad54/Ku70 mutant cell line (AID 743015); details: DT40 Rad54/Ku70 mutant viability, CellTiter-Glo, 40 h; series mostly up to 66.8 µM; note: nearly all actives have a fitted effect of over 60% in size
Records with an inconclusive call do not appear. Activity calls are given as the source filed them. Calls follow the shape of the dose curve; as a rule, active = well fitted cell-killing curve with a large enough effect in the repeat runs; inconclusive = weak or mixed curves; inactive = no such curve, though single readings can be large or run the other way.
Labels: active, inactive

molecule	class
CCC(CO)(CO)[N+](=O)[O-]	inactive
Cc1cn([C@H]2C[C@H](F)[C@@H](CO)O2)c(=O)[nH]c1=O	inactive
CNCc1ccc(NC(=O)c2c[nH]c3c2C(=O)CCC3)cc1	active
CCC(=O)OCc1ccc(OC)cc1	inactive
COc1ccc(C(=O)NCc2ccc(OCCN(C)C)cc2)cc1OC	inactive
CC(C)C(O)C(C)(C)CO (centres undefined)	inactive
CCCCCCCCCCCCCC(=O)OCC(O)CO (centres undefined)	active
CN1CCCN(C(c2ccccc2)c2ccc(Cl)cc2)CC1 (centres undefined)	active
COC(CC(C)CCCC(C)(C)O)OC (centres undefined)	inactive
CCOC(=O)C(C)O (centres undefined)	inactive
CCCCCCCCCCCCCCCC(=O)OCC	inactive
O=C(c1ccccc1)C1CCC1	inactive
CC(C)(O)CCc1ccccc1	inactive
CC(C)(C)CCCCCCOC(=O)c1ccccc1C(=O)OCCCCCCC(C)(C)C	inactive

---

target: Nuclear receptor subfamily 1 group I member 2 (Homo sapiens) (UniProt O75469); assay: Human pregnane X receptor (PXR) activation by small molecules, qHTS assay (AID 1346985); details: DPX-2 HepG2 CYP3A4-luciferase, 24 h; series mostly up to 38.3 µM; note: nearly all actives have a fitted effect of over 40% in size
Results filed as inconclusive are left out. Activity calls are given as the source filed them. The call rests on the fitted dose curve; in most records, active means well fitted activation curve with a large enough effect in the repeat runs; inconclusive means weak or mixed curves; inactive means flat fitted curve, though single readings scatter.
Labels: true (1) (active), false (0) (inactive)

molecule	class
CCN(CC)C(=O)/C(C#N)=C/c1cc(O)c(O)c([N+](=O)[O-])c1	false (0)
CC[C@@H](CO)NCCN[C@@H](CC)CO	false (0)
Cc1cn([C@H]2C[C@H](F)[C@@H](CO)O2)c(=O)[nH]c1=O	false (0)
O=c1[nH]c2cc(C(F)(F)F)c(N3CCOCC3)cc2n(CP(=O)(O)O)c1=O	false (0)
C=CC(=O)O	false (0)
CNC1CCCN(c2c(F)cc3c(=O)c(C(=O)O)cn(C4CC4)c3c2OC)C1 (configuration not stated)	false (0)
Cc1c[nH]c2ccccc12	false (0)
CC[C@H]1OC(=O)[C@H](C)[C@@H](O[C@H]2C[C@@](C)(OC)[C@@H](O)[C@H](C)O2)[C@H](C)[C@@H](O[C@@H]2O[C@H](C)C[C@H](N(C)C)[C@H]2O)[C@](C)(O)C[C@@H](C)CN(C)[C@H](C)[C@@H](O)[C@]1(C)O	false (0)
COc1ccc(C(=O)NCc2ccc(OCCN(C)C)cc2)cc1OC	false (0)
CCOC(=O)c1c(N)sc2c1CCN(Cc1ccccc1)C2	false (0)
CNc1c2c(nn1C)CCCC2	false (0)
CC[C@H]1OC(=O)[C@H](C)[C@@H](O[C@H]2C[C@@](C)(OC)[C@@H](O)[C@H](C)O2)[C@H](C)[C@@H](O[C@@H]2O[C@H](C)C[C@H](N(C)C)[C@H]2O)[C@](C)(O)C[C@@H](C)C(=O)[C@H](C)[C@@H](O)[C@]1(C)O	false (0)
CCN(CC)C(=O)N1CCN(C)CC1	false (0)
O=C1CC[C@@H](C(=O)O)N1	false (0)
Nc1ccc(S(=O)(=O)NCc2ccccc2)cc1	false (0)
CC(C)(C)NCC(O)COc1cccc2c1C[C@H](O)[C@H](O)C2 (some centres not stated)	false (0)
CC(=O)OC(C)C[N+](C)(C)C (configuration not stated)	false (0)
COc1ccc(CCN(C)CCCN2CCc3cc(OC)c(OC)cc3CC2=O)cc1OC	false (0)
CC(C)(C(=O)c1cccnc1)c1cccnc1	false (0)
COc1ccc(/C=C/C(=O)c2ccc(OC)cc2OC)cc1	true (1)
CC(C)C1CCC(C(=O)N[C@H](Cc2ccccc2)C(=O)O)CC1 (some centres not stated)	false (0)
O=C(O)CCC(=O)c1ccc(-c2ccccc2)cc1	false (0)
